Data provenance: paper PMC5779224

Biological target: T1, AnkG 38–855 (AnkG MBD-AI-c protein; MBD + partial AI-c) (rat, UniProt O70511-1 38-855)
T1 chain: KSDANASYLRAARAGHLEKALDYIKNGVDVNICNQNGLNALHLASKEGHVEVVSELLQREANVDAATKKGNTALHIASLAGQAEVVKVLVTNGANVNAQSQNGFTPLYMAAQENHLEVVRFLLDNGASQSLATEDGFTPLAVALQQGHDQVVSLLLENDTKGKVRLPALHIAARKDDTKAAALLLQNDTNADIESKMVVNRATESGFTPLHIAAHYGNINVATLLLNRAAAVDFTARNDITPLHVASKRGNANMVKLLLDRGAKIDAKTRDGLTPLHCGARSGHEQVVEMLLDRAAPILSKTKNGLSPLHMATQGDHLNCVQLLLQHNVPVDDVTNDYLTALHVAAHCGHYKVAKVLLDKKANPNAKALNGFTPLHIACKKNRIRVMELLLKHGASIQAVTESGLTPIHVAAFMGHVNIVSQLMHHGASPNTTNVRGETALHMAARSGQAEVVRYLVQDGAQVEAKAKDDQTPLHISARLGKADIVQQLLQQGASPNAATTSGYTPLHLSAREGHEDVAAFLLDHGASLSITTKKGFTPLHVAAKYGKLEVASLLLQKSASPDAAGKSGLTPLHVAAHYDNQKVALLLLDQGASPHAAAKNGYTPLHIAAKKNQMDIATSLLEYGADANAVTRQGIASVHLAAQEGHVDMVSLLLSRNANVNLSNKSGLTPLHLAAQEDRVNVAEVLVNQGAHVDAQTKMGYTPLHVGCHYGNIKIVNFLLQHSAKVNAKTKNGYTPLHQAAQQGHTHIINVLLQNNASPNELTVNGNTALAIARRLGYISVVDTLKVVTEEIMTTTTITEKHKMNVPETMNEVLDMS
Test: ITC
Measured pKd, listed per entry for reference.
On this scale, pKd is minus log10 of a concentration expressed in M (mol/L).

Some binders with recorded pKd:
binder="Nav1.2 (aa 1035–1129) (domain or fragment) KALDEIKPLEDLNNKKDSCISNHTTIEIGKDLNYLKDGNGTTSGIGSSVEKYVVDESDYMSFINNPSLTVTVPIAVGESDFENLNTEEFSSESDM" test_value=6.60
binder="KASAPEKLSDGEYISDGEEGEDAITGDTDKYLGPQDLKELGDD [AnkG 861-903]" test_value=5.96
binder="SDGEEGEDAITGDTDKYLGPQDLKELGDD (domain or fragment) [AnkG_AI-b (aa 875–903)]" test_value=5.46

Provide measured pKd value, entry: AnkG linker ΔAI-c (aa 861–920) (domain or fragment) KASAPEKLSDGEYISDGEEGEDAITGDTDKYLGPQDLKELGDDSLPAEGYVGFSLGARSA
5.80
